Source listed as ChEMBL document CHEMBL3259812.

Target: UniProtKB P81908
Assay: Inhibition of horse serum BChE using butyrylthiocholine iodide as substrate assessed as residual activity at 20 uM preincubated for 35 mins followed by enzyme addition measured after 3 mins by Ellman's method relative to control
recorded_metric: Activity
Answer format: value, then unit.

Example entries begin here.
CC(C)c1ccc2c(c1C(=O)CC(C(=O)NC1CCCCC1)n1ccnc1)CCCC2 (racemic) : 52.2%
CC(C)c1ccc2c(c1C(=O)CC(C(=O)NC1CCCCC1)N1CCCCC1)CCCC2 (racemic) : 61.5%

Dear colleague, could you send me Activity for each of the items below? Thanks.
1. COc1ccc(NC(=O)C(CC(=O)c2ccc(C(C)C)cc2C(C)C)n2ccnc2)cc1OC (racemic)
2. CC(C)c1ccc(C(=O)CC(C(=O)NC2CCCCC2)N2CCCCC2)cc1 (racemic)
3. CC(C)c1ccc2c(c1C(=O)CC(C(=O)NC1CCCCC1)N1CCOCC1)CCCC2 (racemic)
4. CC(C)c1ccc(C(=O)CC(C(=O)NC2CCCCC2)N2CCN(C)CC2)cc1 (racemic)
5. CN1CCN(C(CC(=O)c2cccc3c2CCCC3)C(=O)NC2CCCCC2)CC1 (racemic)

Key:
78.4%
65%
75.2%
66.2%
56.7%

Dear colleague, could you send me Activity for each of the items below? Thanks.
1. CC(C)c1ccc(C(=O)CC(C(=O)NC2CCCCC2)n2ccnc2)cc1 (racemic)
2. CC(C)c1ccc(C(=O)CC(C(=O)NC2CCCCC2)n2ccnc2)c(C(C)C)c1 (racemic)
3. CC(C)c1ccc(C(=O)CC(C(=O)NC2CCCCC2)N2CCCCC2)c(C(C)C)c1 (racemic)
4. CC(C)c1ccc2c(c1C(=O)CC(C(=O)NC1CCCCC1)N1CCN(C)CC1)CCCC2 (racemic)

Key:
1. 76%
2. 65.8%
3. 72.7%
4. 39.1%

---

Assay: Mixed type inhibition of electric eel acetylcholinesterase type VI-S using acetylthiocholine iodide as substrate assessed as enzyme-inhibitor complex by Lineweaver-Burk plot analysis
Set-up: species or system Electrophorus electricus
recorded_metric: Ki (nM)
Answers are plain numbers, in nM.

# Ki (compound: CC(C)c1ccc(NC(=O)C(CC(=O)c2ccc(C(C)C)cc2C(C)C)N2CCCCC2)cc1 (racemic) ) is 520

---

Kindly supply the reported IC50 values for the records listed here.
Biological target: Cholinesterase (Equus caballus, UniProt P81908)
Sequence (P81908 whole entry): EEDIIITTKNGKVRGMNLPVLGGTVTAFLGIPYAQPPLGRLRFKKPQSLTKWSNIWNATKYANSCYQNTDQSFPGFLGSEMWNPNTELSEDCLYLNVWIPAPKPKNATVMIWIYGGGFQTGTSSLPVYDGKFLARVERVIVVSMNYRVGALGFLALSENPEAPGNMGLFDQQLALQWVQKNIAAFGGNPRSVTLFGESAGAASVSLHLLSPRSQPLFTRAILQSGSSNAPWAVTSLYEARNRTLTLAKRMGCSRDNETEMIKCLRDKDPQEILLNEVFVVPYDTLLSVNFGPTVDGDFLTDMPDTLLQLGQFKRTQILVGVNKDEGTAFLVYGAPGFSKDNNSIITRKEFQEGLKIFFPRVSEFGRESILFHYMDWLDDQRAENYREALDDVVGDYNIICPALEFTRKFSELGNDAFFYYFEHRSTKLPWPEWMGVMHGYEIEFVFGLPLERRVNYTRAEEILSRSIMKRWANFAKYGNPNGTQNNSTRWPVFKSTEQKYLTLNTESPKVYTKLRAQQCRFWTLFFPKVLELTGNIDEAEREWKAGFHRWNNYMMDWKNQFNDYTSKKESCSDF

Example entries begin here.
CC(C)c1ccc(C(=O)CC(C(=O)NC2CCCCC2)N2CCOCC2)c(C(C)C)c1 (stereo not drawn) : > 20 µM
COc1cc(NC(=O)C(CC(=O)c2ccc(C(C)C)cc2)n2ccnc2)cc(OC)c1 (racemic) : > 20 µM

// next entry
# IC50 (compound: CC(C)c1ccc(NC(=O)C(CC(=O)c2cccc3c2CCCC3)n2ccnc2)cc1 (racemic) ) is > 20 µM
